Test system: TK-10 renal
Assay: NCI tumour cell line growth inhibition, 48 h

molecule | TGI
O=C1CN(c2ccccc2)C(=O)C1C(=O)Nc1ccc(Cl)c(Cl)c1 (stereo not drawn) | 18.5 µM
CC(C)(C)OC(=O)n1c(Cl)c(C(=O)N=C=S)c2ccccc21 | > 100 µM
O=C(O)C12C3C4(C(=O)O)C1C1(C(=O)O)C2C3(C(=O)O)C41 (stereo not drawn) | > 100 µM
CC(=O)[O-].O=[N+]([O-])c1ccc([O-])c(C=NCCN=Cc2cc([N+](=O)[O-])ccc2[O-])c1.[Mn+3] | > 100 µM
O=C(O)C(O)c1ccc(F)cc1 (stereo not drawn) | > 100 µM
CCCCOP1(=O)C=CC(Cl)=C(C)C1 (stereo not drawn) | 75.1 µM
O=C(O)CCSc1ncnc2nc[nH]c12 | > 100 µM
CCc1ccc(OCc2ccccc2C(=O)Nc2ccc3nc(C)cc(N)c3c2)cc1 | 3.17 µM
CCOc1ccccc1NC(=O)CCC(=O)NN | > 100 µM
CC1=[N+]([O-])C2(CCCC2)N(O)C1(C)C | > 100 µM
CN1C=C(C(N)=O)C2CC(O)[C@@](NC(=O)CS(N)(=O)=O)(C(=O)O)C2C1 (stereo partly drawn) | 28.5 µM
CCn1c(-c2nonc2N)nc2c(C#CC(C)(C)O)ncc(OC[C@@H]3CCCN3)c21 | > 21.8 µM
Nc1nc(Cl)cc(NCCCCCCNc2cc(Cl)nc(N)n2)n1 | > 100 µM
